# test_details: qHTS assay for identifying genotoxic compounds that show differential cytotoxicity against isogenic chicken DT40 cell lines with known DNA damage response pathways - Rad54/Ku70 mutant cell line (AID 743015); further: nearly all actives have a fitted effect of over 60% in size
# particulars: DT40 Rad54/Ku70 mutant viability, CellTiter-Glo, 40 h; series mostly up to 66.8 µM
Results filed as inconclusive are left out. The source made the active and inactive calls. The call rests on the fitted dose curve; in most records, active means well fitted cell-killing curve with a large enough effect in the repeat runs; inconclusive means weak or mixed curves; inactive means no such curve, though single readings can be large or run the other way.
Outcome field: choose from active, inactive

Answered cases to consult:
> print(dat)
                                   compound     group
1  CCN1CCC2(CC1)COc1cc3c(cc12)N(C(=O)c1ccc(-c2ccc(-c4nnc(C)o4)cc2C)cc1)CC3    active
2  CCC[CH2][Sn]([CH2]CCC)([CH2]CCC)[O][Sn]([CH2]CCC)([CH2]CCC)[CH2]CCC    active
3                        [Cl][Hg][c]1ccccc1    active
4             O=[N+]([O-])c1ccccc1-c1ccccc1  inactive
5  CN1CCc2cc3c(cc2C1O)OCO3 (configuration not stated)  inactive

Recorded call for "CSC(C)(C)/C=N/O" ?
inactive

Recorded call for "CSC(=O)c1c(C(F)F)nc(C(F)(F)F)c(C(=O)SC)c1CC(C)C" ?
active

###

# test_details: qHTS assay for small molecule agonists of the p53 signaling pathway - cell viability (AID 651633); further: nearly all actives have a fitted effect of over 30% in size; further: potency means the concentration at half of the fitted maximal effect
# particulars: p53RE-bla HCT-116 viability, ATP luminescence, 16 h; series mostly up to 83.3 µM
Results filed as inconclusive are left out. Active and inactive are the calls of the source. Calls follow the shape of the full dose curve.
measured_property: Potency

> print(dat)
                        compound  measured.property     value
1                         N#CCCl            Potency  inactive
2        Cc1cccc(Cc2cnc[nH]2)c1C            Potency  inactive
3           CNC(=O)CSP(=O)(OC)OC            Potency  inactive
4  O=[N+]([O-])c1ccccc1-c1ccccc1            Potency  inactive

Field: Potency. Fill in for each record below.
1. COc1c2c(cc3c1OCO3)CCN(C)C2
2. CCN1CCC2(CC1)COc1cc3c(cc12)N(C(=O)c1ccc(-c2ccc(-c4nnc(C)o4)cc2C)cc1)CC3

1. inactive
2. 56.4 µM (active)

Field: Potency. Fill in for each record below.
1. O=C(NC(=O)c1c(F)cccc1F)Nc1ccc(Oc2ccc(C(F)(F)F)cc2Cl)cc1F
2. CCCCON=O
3. COP(=O)(OC)O/C(=C\Cl)c1cc(Cl)c(Cl)cc1Cl

1: inactive; 2: inactive; 3: inactive

Field: Potency. Fill in for each record below.
1. Oc1ccc([C@H]2CNCc3c2ccc(O)c3O)cc1O
2. [O]=[Cr](=[O])([OH])[O][Cr](=[O])(=[O])[OH]
3. COc1ccc2c3c1O[C@H]1[C@H](O)CC[C@H]4[C@@H](C2)N(C)CC[C@@]341
4. BrCC(Br)(Br)Br
5. c1ccc(N=NNc2ccccc2)cc1
6. COc1nc(C)nc(NC(=O)NS(=O)(=O)c2ccccc2Cl)n1
7. O=C(N[C@H]1N=C(c2ccccc2F)c2cccc3c2N(CC3)C1=O)c1cc2ccccc2[nH]1

inactive
19.5 µM (active) [middle of 4 runs]
inactive
inactive
inactive
inactive
inactive

###

# measurement_target: Luciferin 4-monooxygenase (Photinus pyralis)
# test_details: qHTS assay to identify small molecule inhibitors of firefly luciferase (AID 1224835); further: nearly all actives have a fitted effect of over 25% in size
# particulars: purified P. pyralis luciferase, luminescence inhibition; series mostly up to 115 µM
Records with an inconclusive call do not appear. Activity calls are given as the source filed them. Calls come from the whole dose curve; as a rule, active = well fitted inhibition curve with a large enough effect in the repeat runs; inconclusive = weak or mixed curves; inactive = flat fitted curve, though single readings scatter.
Outcome field: choose from class 1 for active, class 0 for inactive

> print(dat)
                                   compound    group
1  CCC[CH2][Sn]([CH2]CCC)([CH2]CCC)[CH2]CCC  class 0
2  COc1nc(C)nc(NC(=O)NS(=O)(=O)c2ccccc2Cl)n1  class 0
3               COC(=O)/C=C(\C)OP(=O)(OC)OC  class 0
4  FC(F)C(F)(F)OCC(Cn1cncn1)c1ccc(Cl)cc1Cl (stereo unspecified)  class 0
5               Nc1ccc(Cl)cc1C(=O)c1ccccc1F  class 0

Recorded call for "C=C(C)C(=O)[O][Sn]([CH2]CCC)([CH2]CCC)[CH2]CCC" ?
class 1

Recorded call for "c1ccc2c(c1)cc1ccc3cccc4ccc2c1c34" ?
class 1

Recorded call for "c1ccc2nc(N3CCNCC3)ccc2c1" ?
class 0

Recorded call for "ClC1=C(Cl)[C@]2(Cl)[C@H]3[C@H]([C@@H]4C=C[C@H]3C4)[C@@]1(Cl)C2(Cl)Cl" ?
class 0

Recorded call for "Brc1ccc(Oc2ccc(Br)cc2Br)c(Br)c1" ?
class 1

Recorded call for "N#Cc1c[nH]cc1-c1cccc2c1OC(F)(F)O2" ?
class 0

Recorded call for "CCN(CC)CCN1C(=O)CN=C(c2ccccc2F)c2cc(Cl)ccc21" ?
class 0

Recorded call for "CCCCN(CCCC)C(=S)[S-].CCCCN(CCCC)C(=S)[S-].[Ni+2]" ?
class 0

###

# measurement_target: Nuclear receptor subfamily 1 group I member 2 (Rattus norvegicus)
# test_details: Rat pregnane X receptor (rPXR) activation by small molecules, qHTS assay (AID 1346983); further: on the % scale 0 is the no-effect control and ±100 the full control effect; nearly all actives have a fitted effect of over 20% in size
# particulars: rPXR luciferase reporter cells, One-Glo luminescence, 24 h; active compounds read high
Results filed as inconclusive are left out.
measured_property: max activation (%)
One number for each entry, in %.

> print(dat)
                                   compound  value
1  CC(C)NCC(O)c1ccccc1Cl (centres undefined)   1.03
2                    CN(C)C(=S)SSC(=S)N(C)C  -13.9
3  CN1CCc2cc(Cl)c(O)cc2[C@H]2c3ccccc3CC[C@@H]21  0.833

Field: max activation. Fill in for each record below.
1. COc1ccc(Cc2nccc3cc(OC)c(OC)cc23)cc1OC
2. CCN(CC)CCN1C(=O)CN=C(c2ccccc2F)c2cc(Cl)ccc21
3. CC(C)C(Br)C(=O)NC(N)=O (centres undefined)
4. Oc1ccc2[nH]cc(CCCCN3CC=C(c4ccccc4)CC3)c2c1

1. -16.6
2. 8.1
3. -0.856
4. 4.09

Field: max activation. Fill in for each record below.
1. CNC(C)(C)Cc1ccccc1
2. C[C@]12C/C(=C/O)C(=O)C[C@@H]1CC[C@@H]1[C@@H]2CC[C@@]2(C)[C@H]1CC[C@]2(C)O

-0.549
1.42

###

# test_details: qHTS assay to identify small molecule antagonists of the glucocorticoid receptor (GR) signaling pathway - cell viability counter screen (AID 720693); further: on the % scale 0 is the no-effect control and ±100 the full control effect; nearly all actives have a fitted effect of over 55% in size
# particulars: GR-bla HeLa viability, CellTiter-Glo luminescence, 18 h, with 5 nM dexamethasone present; series mostly up to 58.5 µM
Records with an inconclusive call do not appear. Activity calls are given as the source filed them. The call rests on the fitted dose curve; in most records, active means well fitted cell-killing curve with a large enough effect in the repeat runs; inconclusive means weak or mixed curves, or effect the other way; inactive means no such curve, though single readings can be large or run the other way.
Outcome field: choose from active, inactive

Recorded call for CC1CN1 (stereo not drawn) ?
inactive

Recorded call for "Cc1c([N+](=O)[O-])c(C)c([N+](=O)[O-])c(C(C)(C)C)c1[N+](=O)[O-]" ?
inactive

Recorded call for "Cc1ccc(C)c2ccccc12" ?
inactive

Recorded call for CC(Cc1ccc2c(c1)OCO2)NO (stereo not drawn) ?
inactive

Recorded call for "CNN" ?
inactive

Recorded call for "CCC1(CC)C(=O)N=C(O)NC1=O" ?
inactive

Recorded call for "Brc1ccc(Oc2ccc(Br)cc2Br)c(Br)c1" ?
inactive

Recorded call for "Nc1nc(N)c(N)c(N)n1" ?
inactive

Recorded call for CCn1cc[n+](C)c1 (tested in a mixture with another compound) ?
inactive

###

# test_details: qHTS assay to identify small molecule agonists of the hypoxia (HIF-1) signaling pathway - cell viability counter screen (AID 1224844); further: nearly all actives have a fitted effect of over 50% in size
# particulars: HRE-bla ME-180 viability, CellTiter-Glo luminescence, 17 h; series mostly up to 76.8 µM
Results filed as inconclusive are left out. The source made the active and inactive calls. The call rests on the fitted dose curve.
Outcome field: choose from label 1 (active), label 0 (inactive)

Answered cases to consult:
> print(dat)
                                   compound    group
1                   O=c1[nH]c(Cl)c(Cl)cc1Cl  label 0
2  CC(C)(C)c1ccc(OP(=O)(Oc2ccccc2)Oc2ccccc2)cc1  label 0
3              CCOP(=O)(Sc1ccccc1)Sc1ccccc1  label 0

Recorded call for "COc1cnc(OC)n2nc(NS(=O)(=O)c3c(OCC(F)F)cccc3C(F)(F)F)nc12" ?
label 0

Recorded call for "Cc1c([N+](=O)[O-])c(C)c([N+](=O)[O-])c(C(C)(C)C)c1[N+](=O)[O-]" ?
label 1

Recorded call for "CC(=O)O.CC(=O)O.CC(=O)O.CC(=O)O.CC(=O)O.CC(=O)O.CC(=O)O.O.O.[Cr].[Cr].[Cr]" ?
label 0

Recorded call for "COCCC#N" ?
label 0

Recorded call for CCCC[N+]1(C)CCCC1 (tested in a mixture with another compound) ?
label 0

Recorded call for "CCN(CC)CCc1c[nH]c2ccccc12" ?
label 0

Recorded call for "CCNS(=O)(=O)C(F)(F)C(F)(F)C(F)(F)C(F)(F)C(F)(F)C(F)(F)C(F)(F)C(F)(F)F" ?
label 0
